Test: Proton relaxivity analysis (variable field T1-T2 analyzer)
Type: physicochemical
Details: Table IV; field strength varied from 1-64 MHz
measured.property: Relaxivity (r1) (mM⁻¹ s⁻¹)
Give the value in mM⁻¹ s⁻¹ but do not write mM⁻¹ s⁻¹ after it.

Sample O=C([O-])CN(CCN(CC(=O)[O-])CC(=O)O)CCN(CC(=O)[O-])CC(=O)O.[Gd+3] — what was its Relaxivity (r1)?
4.2

Reference source: patent US7985424B2
